Let's look at some compounds and their measured MIC, C. parapsilosis ATCC 22019.
- System: C. parapsilosis ATCC 22019
- Assay Name: MIC, micro-dilution broth method
- Format: cell-based, Candida parapsilosis
- Assay Setup: Yeasts; micro-dilution broth with 2% glucose
Write the number in µg/mL without appending the unit.

Look at this compound and give its reported MIC, C. parapsilosis ATCC 22019. C[C@@H]1[C@H](O)[C@@H](C)/C=C/C=C/CC/C=C/C=C/C=C/C=C/C(O[C@H]2O[C@H](C)[C@@H](O)[C@H](N)[C@@H]2O)CC2O[C@](O)(CC(O)C(O)CCC(O)CC(O)CC(O)CC(=O)O[C@H]1C)CC(O)C2C(=O)O (some centres unmarked) [Nys, nystatin, reference compound] 0.24

More entries:
Look at this compound and give its reported MIC, C. parapsilosis ATCC 22019. O.[Cl][Cd][Cl].c1cc(-c2nc3ccncc3[nH]2)ccn1 15.6

Look at this compound and give its reported MIC, C. parapsilosis ATCC 22019. Brc1cnc2[nH]c(-c3cccnc3)nc2c1.O.O.[Cl][Cd][Cl] 7.8

Look at this compound and give its reported MIC, C. parapsilosis ATCC 22019. O.O.[Cl][Cd][Cl].c1cncc(-c2nc3cccnc3[nH]2)c1 15.6

Look at this compound and give its reported MIC, C. parapsilosis ATCC 22019. O.[Cl][Cd][Cl].c1cnc2[nH]c(-c3ccncc3)nc2c1 7.8
